This collection of values is drawn from paper PMC3859510.

assay: Cytostatic assay (MTS/PMS) in Huh 7.5.1 cells; assay type: cell-based; details: human
Observation type: CC50 at 3 days

# Molecule, Observation type, Obs value
rows = [
    ("CCC[C@H](NC(=O)[C@@H]1[C@H]2CCC[C@H]2CN1C(=O)[C@@H](NC(=O)[C@@H](NC(=O)c1cnccn1)C1CCCCC1)C(C)(C)C)C(=O)C(=O)NC1CC1 [VX-950, reference compound]", "CC50 at 3 days", "> 10 µM"),
]

---

Test: Cytostatic assay (MTS/PMS) in Huh 5-2 cells
Format: cell-based
Details: human, three days
Experimental: Cells were seeded at a density of 5×10^3 or 7.2×10^3 cells per well in a 96-well plate in complete DMEM in serial dilutions of the test compounds for Huh 5-2 and Huh 7.5.1 cells, respectively. After three days of incubation, cell viability was determined by MTS/PMS method (Promega).
As shown below, each of these molecules has a reported CC50 at 3 days value.

# Molecule, Units text, Inequality symbol, CC50 at 3 days
measured = [
    ("CC1CCC2C(C)C(OCc3ccc(COC4OC5OC6(C)CCC7C(C)CCC(C4C)C57OO6)cc3)OC3OC4(C)CCC1C32OO4 (stereo not drawn)", "µM", ">", 133),
    ("C=COC1OC2OC3(C)CCC4C(C)CCC(C1C)C24OO3 (stereo not drawn)", "µM", "=", 123),
    ("CC1CCC2C(C)C(OC(=O)c3ccccc3)OC3OC4(C)CCC1C32OO4 (stereo not drawn)", "µM", "=", 40),
]

---

As shown below, each of these molecules has a reported CC50 at 3 days value.
test: Cytostatic assay (MTS/PMS) in Huh 5-2 cells; assay type: cell-based; conditions: human, three days
Observation type: CC50 at 3 days

# Molecule, Obs value
rows = [
    ("CC(=O)OC1OC2OC3(C)CCC4C(C)CCC(C1C)C24OO3 (stereo not shown)", "36 µM"),
    ("C[C@@H]1CC[C@H]2[C@@H](C)C(=O)O[C@@H]3O[C@@]4(C)CC[C@@H]1[C@]32OO4 [ART, Artemisinin, reference compound]", "> 400 µM"),
    ("C[C@@H]1CCC2[C@@H](C)[C@H](OCc3ccc(C=O)cc3)OC3O[C@@]4(C)CCC1[C@]32OO4 (stereo partly shown)", "> 133 µM"),
    ("C[C@@H]1CCC2[C@@H](C)[C@H](OCc3ccc(CO)cc3)OC3O[C@@]4(C)CCC1[C@]32OO4 (stereo partly shown)", "> 133 µM"),
]

---

As shown below, each of these compounds has a reported CC50 at 3 days value.
assay: Cytostatic assay (MTS/PMS) in Huh 7.5.1 cells; type: cell-based; settings: human; Huh 7.5.1 hepatoma cells; three days; MTS/PMS

# Compound, CC50 at 3 days
measured = [
    ("C[C@H]1[C@@H](O)O[C@@H]2O[C@@]3(C)CC[C@H]4[C@H](C)CC[C@@H]1[C@@]24OO3 [Dihydroartemisinin]", "< 6 µM"),
    ("C[C@H]1[C@H](OC(=O)CCC(=O)O)O[C@@H]2O[C@@]3(C)CC[C@H]4[C@H](C)CC[C@@H]1[C@@]24OO3 [Artesunate]", "< 6 µM"),
    ("C=COC1OC2OC3(C)CCC4C(C)CCC(C1C)C24OO3 (centres unmarked)", "> 133 µM"),
    ("C[C@@H]1CCC2[C@@H](C)[C@H](OCc3ccc(CO)cc3)OC3O[C@@]4(C)CCC1[C@]32OO4 (some centres unmarked)", "> 133 µM"),
    ("CO[C@H]1O[C@@H]2O[C@@]3(C)CC[C@H]4[C@H](C)CC[C@@H]([C@H]1C)[C@@]24OO3", "< 6 µM"),
    ("C[C@@H]1CCC2[C@@H](C)[C@H](OCc3ccc(C=O)cc3)OC3O[C@@]4(C)CCC1[C@]32OO4 (some centres unmarked)", "> 133 µM"),
    ("CC1CCC2C(C)C(OCc3ccc(COC4OC5OC6(C)CCC7C(C)CCC(C4C)C57OO6)cc3)OC3OC4(C)CCC1C32OO4 (centres unmarked)", "> 133 µM"),
    ("C[C@@H]1CC[C@H]2[C@@H](C)C(=O)O[C@@H]3O[C@@]4(C)CC[C@@H]1[C@]32OO4 [ART, Artemisinin, reference compound]", "> 400 µM"),
]

---

system: infectious HCV JFH-1/CS-N6 in Huh 7.5.1 cells; experiment: microbe, parasite or virus in culture; type: cell-based, hepatitis C virus (HCV); conditions: HCVcc system; CC50/EC50
Observation type: SI

# Compound, Observation type, Obs value
records = [
    ("CCC[C@H](NC(=O)[C@@H]1[C@H]2CCC[C@H]2CN1C(=O)[C@@H](NC(=O)[C@@H](NC(=O)c1cnccn1)C1CCCCC1)C(C)(C)C)C(=O)C(=O)NC1CC1 [VX-950, reference compound]", "SI", "> 50"),
    ("CC1CCC2C(C)C(OCc3ccc(COC4OC5OC6(C)CCC7C(C)CCC(C4C)C57OO6)cc3)OC3OC4(C)CCC1C32OO4 (stereo not drawn)", "SI", "> 8"),
    ("C[C@@H]1CCC2[C@@H](C)[C@H](OCc3ccc(CO)cc3)OC3O[C@@]4(C)CCC1[C@]32OO4 (stereo partly drawn)", "SI", "> 5"),
    ("C=COC1OC2OC3(C)CCC4C(C)CCC(C1C)C24OO3 (stereo not drawn)", "SI", "> 2"),
    ("C[C@@H]1CCC2[C@@H](C)[C@H](OCc3ccc(C=O)cc3)OC3O[C@@]4(C)CCC1[C@]32OO4 (stereo partly drawn)", "SI", "> 8"),
    ("C[C@@H]1CC[C@H]2[C@@H](C)C(=O)O[C@@H]3O[C@@]4(C)CC[C@@H]1[C@]32OO4 [ART, Artemisinin, reference compound]", "SI", "> 2"),
]
